The measurements presented in this section are drawn from ChEMBL document CHEMBL4229334.

Please go through the items and note down their CC50 at 72 h.
Assay: Cytotoxicity against African green monkey Vero cells after 72 hrs by MTT assay
Format: cell-based
Settings: chlorocebus sabaeus
Give bare numbers, in µg/mL.

NNC(=O)c1ccncc1 :: 32

Now let's try a different one.
Qu. Entry under review: CO[C@H]1/C=C/O[C@@]2(C)Oc3c(C)c(O)c4c(O)c(c(/C=N/N5CCN(C)CC5)c(O)c4c3C2=O)NC(=O)/C(C)=C\C=C\[C@H](C)[C@H](O)[C@@H](C)[C@@H](O)[C@@H](C)[C@H](OC(C)=O)[C@@H]1C . Reported CC50 at 72 h?
Ans. 7.8
